assayed target: T1, Goat anti-Human Kappa
T1 construct: Positive control; also called biotinylated goat anti-human kappa light chain
method summary: ELISA; positive control; note: test concentration or dose not given here
Parameter optical density: see the listing below.
Give just the numeric value; OD need not be written.

Before answering, review these 2 worked examples.
>  <binder>
366_F04 (antibody, V domains shown, VH/VL only) VH: EVQLLESGGGLVQPGGSLRLSCAASGFTFSDYGMNWVRQAPGKGLEWVSGINYNGGYTSYADSVKGRFTISRDNSKNTLYLQMNSLRAEDTAVYYCARSANWHDTALDYWGQGTLVTVSS VL: DIQMTQSPSSLSASVGDRVTITCRASQSILSYVNWYQQKPGKAPKLVIYATTSRHSGVPSRFSGSGSGTDFTLTISSLQPEDFATYYCQQSYESPLTFGGGTKVEIK

>  <endpoint>
optical density

>  <numeric result>
3.37

$$$$
>  <binder>
366_G05 (antibody, V domains shown, VH/VL only) VH: EVQLLESGGGLVQPGGSLRLSCAASGFTFDSYGMNWVRQAPGKGLEWVSNINYNGGYTSYADSVKGRFTISRDNSKNTLYLQMNSLRAEDTAVYYCARSANWHDTALDYWGQGTLVTVSS VL: DIQMTQSPSSLSASVGDRVTITCRASQSIISYVNWYQQKPGKAPKLVIYAATSRASGVPSRFSGSGSGTDFTLTISSLQPEDFATYYCQQSYENPLTFGGGTKVEIK

>  <endpoint>
optical density

>  <numeric result>
3.26

$$$$

Please turn your attention to the following entry.
Please report the recorded optical density for 369_H08 (antibody, V domains shown, VH/VL only) VH: EVQLLESGGGLVQPGGSLRLSCAASGFTFSSYSMNWVRQAPGKGLEWVAGINYNSGYKSYADSVKGRFTISRDNSKNTLYLQMNSLRAEDTAVYYCARGATWHDTHLDYWGQGTLVTVSS VL: DIQMTQSPSSLSASVGDRVTITCRASQSILSYVNWYQQKPGKAPKLVIYAATSLASGVPSRFSGSGSGTDFTLTISSLQPEDFATYYCQQSYESPLTFGGGTKVEIK .
3.56
